Listed here: items and their measured pKd.
# Tested on: Cell-associated proTGFβ1
# assay-method-text: MSD-SET binding, cell average of hGARP and hLRRC33 complexes
# Set-up: species or system human
# setup-conditions: average KD of (E) and (F), read-out: (G) Cell AVRG
pKd: −log10 of the molar value.
measured-endpoint: pKd

Ab12: monoclonal antibody binding proTGFβ1 complexes; VH SEQ ID NO: 212, VL SEQ ID NO: 15 (antibody, V domains shown) VH: QVQLVESGGGVVQPGRSLRLSCAASGFTFSDYAMVWVRQAPGKGLEWVSAISGSGFTTYYADSVKGRFTISRDNSKNTLYLQMNSLRAEDTAVYYCARVSSGHWDFDYWGQGTLVTVSS VL: DIQLTQSPSSLSASVGDRVTITCRASQSISSYLNWYQQKPGKAPKLLIYAASNLQSGVPSRFSGSGSGTDFTLTISSLQPEDFATYYCQQTYTVPLTFGGGTKVEIK	8.61
Ab2: isoform-selective inhibitor of TGFβ1 activation; VH SEQ ID NO: 13, VL SEQ ID NO: 15; human IgG4 (antibody, V domains shown, human IgG4 constant regions) VH: EVQLLESGGGLVQPGGSLRLSCAASGFTFADYAMTWVRQAPGKGLEWVSAISGSGAATYFADSVKGRFTISRDNSKNTLYLQMNSLRAEDTAVYYCARVSSGHWDFDYWGQGTLVTVSS VL: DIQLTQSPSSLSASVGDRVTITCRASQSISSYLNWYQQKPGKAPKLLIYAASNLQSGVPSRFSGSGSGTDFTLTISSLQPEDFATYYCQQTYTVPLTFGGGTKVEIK	8.64
Ab19: monoclonal antibody binding proTGFβ1 complexes; VH SEQ ID NO: 234, VL SEQ ID NO: 15 (antibody, V domains shown) VH: QVQLVESGGGVVQPGRSLRLSCAASGFTFSSFAMTWVRQAPGKGLEWVSAISGSGAATYFADSVKGRFTISRDNSKNTLYLQMNSLRAEDTAVYYCARVSSGHWDFDEWGQGTLVTVSS VL: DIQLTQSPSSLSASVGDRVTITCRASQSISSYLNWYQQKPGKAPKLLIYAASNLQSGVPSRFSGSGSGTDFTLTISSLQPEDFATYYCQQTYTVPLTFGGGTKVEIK	8.32
Ab11: monoclonal antibody binding proTGFβ1 complexes; VH SEQ ID NO: 216, VL SEQ ID NO: 15 (antibody, V domains shown) VH: EVQLLESGGGLVQPGGSLRLSCAASGFTFRNYAMSWVRQAPGKGLEWVSSISGSGGATYYADSVKGRFTISRDNSKNTLYLQMNSLRAEDTAVYYCARVSSGHWDFDYWGQGTLVTVSS VL: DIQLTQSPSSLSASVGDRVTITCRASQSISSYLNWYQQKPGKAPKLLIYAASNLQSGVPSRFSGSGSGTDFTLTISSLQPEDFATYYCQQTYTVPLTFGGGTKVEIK	8.33

Reference source: patent US20210340238A1
